Hey, just so you know, these numbers are from PubChem BioAssay (Tox21).

# test: qHTS assay for identifying genotoxic compounds that show differential cytotoxicity against isogenic chicken DT40 cell lines with known DNA damage response pathways - Rad54/Ku70 mutant cell line (AID 743015); note: nearly all actives have a fitted effect of over 60% in size
# condition set: DT40 Rad54/Ku70 mutant viability, CellTiter-Glo, 40 h; series mostly up to 66.8 µM
Records with an inconclusive call do not appear. Activity calls are given as the source filed them. Calls come from the whole dose curve; as a rule, active = well fitted cell-killing curve with a large enough effect in the repeat runs; inconclusive = weak or mixed curves; inactive = no such curve, though single readings can be large or run the other way.
Hello, when you answer, please use one of the following outcomes: true (1) (active), false (0) (inactive)

- compound: "CCCCCCCCCCCCCCCCCCOP(=O)([O-])OC1CC[N+](C)(C)CC1"
  qualitative label: "true (1)"

Query: # outcome recorded in this test, key = CN1[C@@H]2CCC[C@H]1CC(NC(=O)c1nn(C)c3ccccc13)C2 (some centres undefined)
Result: false (0)

Query: # outcome recorded in this test, key = OC[C@H]1O[C@@H](O[C@H]2[C@H](O)[C@@H](O)[C@H](O)O[C@@H]2CO)[C@H](O)[C@@H](O)[C@@H]1O
Result: false (0)

Query: # outcome recorded in this test, key = C=C[C@]1(C)C[C@@H](OC(=O)CSC(C)(C)CNC(=O)[C@H](N)C(C)C)[C@]2(C)[C@H](C)CC[C@]3(CCC(=O)[C@H]32)[C@@H](C)[C@@H]1O
Result: true (1)

Query: # outcome recorded in this test, key = CCCCCCCCCCCCCCCCCC(=O)[O][Al]
Result: false (0)

Query: # outcome recorded in this test, key = O=C(CCCCCCCCCCCCC1CCCC1)Nc1ccc(S(=O)(=O)c2ccc(NC(=O)CCCCCCCCCCCCC3CCCC3)cc2)cc1
Result: false (0)

Query: # outcome recorded in this test, key = COc1cc(NCCCC(C)N)c2ncccc2c1 (centres undefined)
Result: true (1)

Query: # outcome recorded in this test, key = CNC(=O)c1c(I)c(C(=O)NCC(=O)Nc2c(I)c(C(=O)O)c(I)c(C(=O)NCCO)c2I)c(I)c(N(C)C(C)=O)c1I
Result: false (0)

Query: # outcome recorded in this test, key = Cc1ncc(C[n+]2csc(CCOP(=O)(O)OP(=O)(O)O)c2C)c(N)n1
Result: false (0)

====

# test: qHTS assay to identify small molecule antagonists of the estrogen receptor alpha (ER-alpha) signaling pathway - cell viability counter screen (AID 743074);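 note: HEK293 cells carrying ER-alpha-UAS-bla reporter stimulated with 17beta-estradiol; nearly all actives have a fitted effect of over 45% in size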
# condition set: ERalpha-bla HEK293 viability, CellTiter-Glo luminescence, 18 h; series mostly up to 69.4 µM
Results filed as inconclusive are left out. Active and inactive are the calls of the source. Calls come from the whole dose curve.
Hello, when you answer, please use one of the following outcomes: active, inactive

Use the examples below as a reference point.
- smiles string: "CCCC(=O)Nc1ncnc2c1ncn2[C@@H]1O[C@@H]2COP(=O)(O)O[C@H]2[C@H]1OC(=O)CCC"
  qualitative label: "inactive"
- smiles string: "CC(=C\\c1ccccc1)/C=C1/SC(=S)N(CC(=O)O)C1=O"
  qualitative label: "inactive"
- smiles string: "C[N@+]12CCCC[C@@H]1CCC(=C(c1cccs1)c1cccs1)C2"
  qualitative label: "inactive"
- smiles string: "C=C1CC[C@H](O)CC1=C/C=C1\\CCC[C@]2(C)[C@@H]([C@H](C)CCCC(C)(C)O)CC[C@@H]12"
  qualitative label: "active"

Query: # outcome recorded in this test, key = COc1cc2c(cc1OC)[C@@H](c1ccccc1)CN(C)CC2
Result: inactive
